Where these numbers come from: paper PMC10786891

- assaySystem: T1, EsCas13d, nuclease-dead (Eubacterium siraeum, UniProt B0MS50, R295A;H300A;R849A;H854A)
- T1 sequence: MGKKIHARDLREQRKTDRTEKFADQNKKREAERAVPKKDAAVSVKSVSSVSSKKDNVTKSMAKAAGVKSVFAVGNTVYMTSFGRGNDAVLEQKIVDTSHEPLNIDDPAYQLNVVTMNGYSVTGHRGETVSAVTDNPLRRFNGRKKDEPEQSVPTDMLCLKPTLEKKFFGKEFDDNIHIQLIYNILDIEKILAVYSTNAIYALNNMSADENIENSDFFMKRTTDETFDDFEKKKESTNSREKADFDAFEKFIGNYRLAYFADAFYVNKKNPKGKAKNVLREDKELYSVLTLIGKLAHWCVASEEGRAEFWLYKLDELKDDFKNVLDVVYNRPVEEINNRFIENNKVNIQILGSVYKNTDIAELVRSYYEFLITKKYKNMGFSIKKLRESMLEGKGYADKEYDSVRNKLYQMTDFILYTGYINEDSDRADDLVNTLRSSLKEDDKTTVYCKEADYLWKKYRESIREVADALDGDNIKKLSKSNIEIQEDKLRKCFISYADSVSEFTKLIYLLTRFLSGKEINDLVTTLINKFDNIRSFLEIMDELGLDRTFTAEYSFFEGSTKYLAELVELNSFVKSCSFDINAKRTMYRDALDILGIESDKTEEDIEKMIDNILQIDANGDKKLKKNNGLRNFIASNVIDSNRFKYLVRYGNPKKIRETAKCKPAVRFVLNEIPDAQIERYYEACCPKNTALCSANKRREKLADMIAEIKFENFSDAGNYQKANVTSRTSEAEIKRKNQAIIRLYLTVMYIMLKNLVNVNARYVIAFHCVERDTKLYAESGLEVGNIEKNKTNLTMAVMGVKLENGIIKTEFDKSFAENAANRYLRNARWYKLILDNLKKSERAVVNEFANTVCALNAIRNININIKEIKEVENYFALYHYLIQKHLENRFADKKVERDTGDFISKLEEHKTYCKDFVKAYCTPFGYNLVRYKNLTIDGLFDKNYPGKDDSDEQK
- assayInfo: crRNA (strand 1, pre-loaded); Mg2+; 40 mM Tris-HCl pH 7.5, 150 mM NaCl, 6 mM MgCl2, 1 mM DTT, 0.1% Tween-20, 0.2 mg/ml BSA; 25 C; 10 min per concentration, then washed
- conditionInfo: tags: His6-TwinStrep-SUMO cleaved; N-terminal SNAP kept (SNAP-Surface 488); label: 3' end held by stalled T7 RNA polymerase
Reported Kd values for the following binders.
Give a bare numeral; the unit nM is implied.

target 1 MT 5'PFS UGC 3'PFS AUA (mixed) RNA 1: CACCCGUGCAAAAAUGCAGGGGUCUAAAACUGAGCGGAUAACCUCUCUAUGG RNA 2: GGGAAUGGAUCCACAUCUACGAAUUCUGCCCAUAGAGAGGUUAUCCGCUCAAUAAGAUCGGAAGAGCACACGU : 16.5

Consider now this further binder.
-- ask Identify measured Kd associated with target 1 MT 5'PFS AGC 3'PFS CUA (mixed) RNA 1: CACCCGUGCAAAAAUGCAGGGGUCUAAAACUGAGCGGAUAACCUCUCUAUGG RNA 2: GGGAAUGGAUCCACAUCUACGAAUUCAGCCCAUAGAGAGGUUAUCCGCUCACUAAGAUCGGAAGAGCACACGU
-- reply 13.9
